# Method Description: Henry solubility constant Hcp at 298.15 K (mol/(m3 Pa))
# Assay Conditions: reference: Rex (1906)
Reported Henry solubility constant Hcp by item:
Give the value as a plain number.

The examples below pair each entry with its known result.
Input CCBr [bromoethane] , output reported Henry solubility constant Hcp.
0.0013

Input ClCCl [dichloromethane] , output reported Henry solubility constant Hcp.
0.0041

Input BrCBr [dibromomethane] , output reported Henry solubility constant Hcp.
0.011

Input CCCBr [1-bromopropane] , output reported Henry solubility constant Hcp.
0.0011

Input S=C=S [carbon disulfide] , output reported Henry solubility constant Hcp.
0.00054

Input CC(C)Cl [2-chloropropane] , output reported Henry solubility constant Hcp.
0.00056

Input CCI [iodoethane] , output reported Henry solubility constant Hcp.
0.0015

Input ClC(Cl)(Cl)Cl [tetrachloromethane] , output reported Henry solubility constant Hcp.
0.00035

Input CCCI [1-iodopropane] , output reported Henry solubility constant Hcp.
0.001

Input CC(C)I [2-iodopropane] , output reported Henry solubility constant Hcp.
0.00085

Continuing:
Input CI [iodomethane] , output reported Henry solubility constant Hcp.
0.0019

Input CC(C)Br [2-bromopropane] , output reported Henry solubility constant Hcp.
0.0009
